From: patent US20180185450A1

# system-name: human GLP-1 receptor (human, UniProt P43220 24-463)
# procedure-details: cell-based or functional assay
Numbered stars: 1 amine (or outer) side, 2 acyl side, 3 side chain; on linkers, the order of the positions; unused ones are H or OH. Square brackets hold non-standard residues; d marks the D form. Side chains are listed from the residue outwards. Ends that are not written are not given here. γGlu = O=C(O)[C@H](CCC(=O)[*:2])N[*:1]; x53 = not defined here; Aib = CC(C)(N)C(=O)O
measurement-type: EC50 hGLP-1R (cAMP) (pM)
Your answer should be a plain number; it is taken to be in pM.

Memo: HXQGTFTSDLSKQKDERRAKDFIEWLKNGGPSSGAPPPS (dSer at 2; K(γE-x53) at 14; C-terminal NH2) [SEQ ID NO: 87] , reported EC50 hGLP-1R (cAMP): 3

Short answer for H[Aib]QGTFTSDLSKQK([γGlu-x53])ESRRAQDFIEWLKNGGPSSGAPPPS-NH2 (reading uncertain) [SEQ ID NO: 117] : EC50 hGLP-1R (cAMP) was 3.8

The binder HXQGTFTSDLSKQKESQAAQDFIEWLKAGGPSSGAPPPS (dSer at 2; K(γE-x53) at 14; C-terminal NH2) [SEQ ID NO: 35] showed EC50 hGLP-1R (cAMP) equal to 1.5
